EXPERIMENT_NOTES: Dissociation constant, pKa of the compound
Assay type: physicochemical
TEST_READOUT: pKa
Give bare numbers.

Q. Can you share its pKa? I mean this compound: CCC(=O)NS(=O)(=O)c1ccc(-c2c(-c3ccccc3)noc2C)cc1
A. 4.9

* * *

EXPERIMENT_NOTES: Chemical stability of the compound in borate buffered saline assessed as half life of cyclization at pH 6
Format: physicochemical
TEST_READOUT: half-life (min)
Answers are plain numbers, in min.

Q. Can you share its half-life? I mean this compound: Cc1ccc(-c2cc(C(F)(F)F)nn2-c2ccc(S(=O)(=O)NC(=O)CCc3ccccc3N)cc2)cc1
A. 10.9
